Hello, the source for this data is patent US8163909B2, in case you need it.

Assign RLM to each entry below.
assay: Microsomal stability assay, rat liver microsomes; settings: rat liver microsomes
Answers are plain numbers, in µL/min/mg.

Answered examples (2):
| smiles | RLM [µL/min/mg] |
| --- | --- |
| COCC(=O)N[C@@H](Cc1ccc(-c2nccs2)c(F)c1)[C@H](O)CN[C@H]1CC2(CCC2)Oc2ncc(CC(C)(C)C)cc21 | 74 |
| COCC(=O)N[C@@H](Cc1cccc(C#N)c1)[C@H](O)CN[C@H]1CC2(CCC2)Oc2c(-c3ccncc3)cc(CC(C)C)cc21 | 85 |

Okay, here is my list. What is RLM for each of these?
1. CC(=O)N[C@@H](Cc1ccc(F)c(-c2ncc[nH]2)c1)[C@H](O)CN[C@H]1CC2(CCC2)Oc2ncc(CC(C)(C)C)cc21
2. CC(=O)N[C@@H](Cc1ccc(F)c(-c2nccs2)c1)[C@H](O)CN[C@H]1CC2(CCC2)Oc2ccc(CC(C)(C)C)cc21

OUTPUT:
124
113

INPUT: GET /values?readout=RLM&item= CO[C@H](C)C(=O)N[C@@H](Cc1ccc2c(c1)OCO2)[C@H](O)CN[C@H]1CC(C)(C)Oc2ncc(CC(C)(C)C)cc21
OUTPUT: 128

====

Assign IC50 to each entry below.
target: UniProt P08684; test: in vitro; conditions: microsomes, pH 7.4
Sequence (P08684 2-503): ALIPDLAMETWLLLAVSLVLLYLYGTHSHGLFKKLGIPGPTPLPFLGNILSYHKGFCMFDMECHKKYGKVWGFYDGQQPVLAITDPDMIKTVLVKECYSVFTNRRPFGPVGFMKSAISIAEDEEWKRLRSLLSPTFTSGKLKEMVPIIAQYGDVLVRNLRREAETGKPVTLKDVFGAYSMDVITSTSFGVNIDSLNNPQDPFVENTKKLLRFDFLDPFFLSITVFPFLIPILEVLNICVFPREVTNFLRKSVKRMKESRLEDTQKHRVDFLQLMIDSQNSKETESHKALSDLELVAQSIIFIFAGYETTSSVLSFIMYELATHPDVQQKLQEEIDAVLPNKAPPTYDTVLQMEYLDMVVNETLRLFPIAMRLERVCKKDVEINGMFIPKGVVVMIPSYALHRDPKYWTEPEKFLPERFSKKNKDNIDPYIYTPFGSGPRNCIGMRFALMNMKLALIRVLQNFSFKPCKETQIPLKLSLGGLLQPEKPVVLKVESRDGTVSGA

Answered examples (3):
| smiles | IC50 |
| --- | --- |
| CC(=O)N[C@@H](Cc1cc(F)cc(F)c1)[C@H](O)CN[C@H]1CC2(CCC2)Oc2c(-c3ccncc3)cc(CC(C)C)cc21 | ≤ 30 nM |
| C#Cc1cc2c(c(-n3ccnc3)c1)OC1(CCC1)C[C@@H]2NC[C@@H](O)[C@H](Cc1cc(F)cc(F)c1)NC(=O)COC | ≤ 30 nM |
| CO[C@H](C)C(=O)N[C@@H](Cc1ccc2c(c1)OCO2)[C@H](O)CN[C@H]1CC2(CCC2)Oc2ncc(CC(C)(C)F)cc21 | ≤ 30 nM |

Now, please, on to the next compound.
INPUT: GET /values?readout=IC50&item= COCC(=O)N[C@@H](Cc1cccc(F)c1)[C@H](O)CN[C@H]1CC2(CCC2)Oc2c(-c3ccncc3)cc(CC(C)(C)Cl)cc21
OUTPUT: ≥ 27000 nM

====

molecular target: CYP2D6 (Homo sapiens, UniProt P10635); assay: CYP2D6 inhibition assay (bufuralol, pooled human liver microsomes); conditions: 2D6 IC50 (uM), CYP enzyme inhibition
Sequence (P10635 whole entry): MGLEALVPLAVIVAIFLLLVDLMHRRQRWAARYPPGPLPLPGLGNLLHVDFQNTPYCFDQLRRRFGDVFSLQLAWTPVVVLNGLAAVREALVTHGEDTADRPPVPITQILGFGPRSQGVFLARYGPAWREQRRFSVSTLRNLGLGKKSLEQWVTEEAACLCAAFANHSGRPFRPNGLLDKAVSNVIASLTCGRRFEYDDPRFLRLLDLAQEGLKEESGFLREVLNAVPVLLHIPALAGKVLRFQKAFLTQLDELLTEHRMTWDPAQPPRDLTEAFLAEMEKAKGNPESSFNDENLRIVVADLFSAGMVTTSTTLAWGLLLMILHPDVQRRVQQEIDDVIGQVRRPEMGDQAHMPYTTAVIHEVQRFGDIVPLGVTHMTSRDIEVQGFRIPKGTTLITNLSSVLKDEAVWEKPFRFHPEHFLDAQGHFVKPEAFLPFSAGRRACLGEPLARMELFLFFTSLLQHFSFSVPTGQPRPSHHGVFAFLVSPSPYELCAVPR
parameter: IC50 (µM)
Give bare numbers, in µM.

Answered examples (2):
| molecule | tested.on | parameter | measured.number |
| --- | --- | --- | --- |
| COCC(=O)N[C@@H](Cc1cc(F)cc(F)c1)[C@H](O)CN[C@H]1CC2(CCC2)Oc2c(-c3ccccc3F)cc(CC(C)(C)C)cc21 [compound 487] | CYP2D6 (Homo sapiens, UniProt P10635) | IC50 | 21.4 |
| COCC(=O)N[C@@H](Cc1ccc2c(c1)OCO2)[C@H](O)CN[C@H]1CC2(CCC2)Oc2ncc(CC(F)(F)F)cc21 [compound 518] | CYP2D6 (Homo sapiens, UniProt P10635) | IC50 | 2.7 |

Okay, here is my list. What is IC50 for each of these?
1. C#Cc1cccc(C[C@H](NC(=O)COC)[C@H](O)CN[C@H]2CC3(CCC3)Oc3ncc(CC)cc32)c1 [compound 842]
2. C#Cc1cccc(C[C@H](NC(=O)COC)[C@H](O)CN[C@H]2C[C@@]3(CCOC3)Oc3ncc(CC(C)(C)C)cc32)c1 [compound 825]

OUTPUT:
[4.9, 7.3]

INPUT: GET /values?readout=IC50&item= CO[C@H](C)C(=O)N[C@@H](Cc1cccc(Br)c1)[C@H](O)CN[C@H]1CC2(CCC2)Oc2ncc(CC(C)C)cc21 [compound 801]
OUTPUT: 3.8

====

biological target: Beta Secretase enzyme (BACE) (Homo sapiens, UniProt P56817); experiment: In vitro enzymatic BACE FRET (fluorescence resonance energy transfer) assay; format: biochemical; settings: read-out: BACE1 FRET assay (IC50);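 also: fluorescence read after 1 h with 50 nM quenched peptide substrate spanning the BACE cleavage site, in pH 4.2 acetate buffer containing 10% DMSO and nonionic detergent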
Sequence (P56817 46-501): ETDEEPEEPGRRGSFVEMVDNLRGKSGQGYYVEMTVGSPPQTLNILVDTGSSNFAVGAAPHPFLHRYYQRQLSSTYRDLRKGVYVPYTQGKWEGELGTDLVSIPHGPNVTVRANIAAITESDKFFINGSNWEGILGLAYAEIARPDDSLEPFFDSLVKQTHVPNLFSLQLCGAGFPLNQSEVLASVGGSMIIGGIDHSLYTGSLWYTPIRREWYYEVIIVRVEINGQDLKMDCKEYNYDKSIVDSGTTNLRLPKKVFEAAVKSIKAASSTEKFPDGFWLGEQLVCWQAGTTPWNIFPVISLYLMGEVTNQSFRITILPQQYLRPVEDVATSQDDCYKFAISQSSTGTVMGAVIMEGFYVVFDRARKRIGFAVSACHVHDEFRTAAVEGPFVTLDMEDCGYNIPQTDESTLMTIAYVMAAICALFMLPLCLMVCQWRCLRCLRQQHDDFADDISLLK
parameter: pIC50
Give bare numbers, as −log10 of the molar value.

Answered examples (4):
| smiles | pIC50 |
| --- | --- |
| CC(=O)N[C@@H](Cc1cccc(F)c1)[C@H](O)CN[C@H]1CC2(CCC2)Oc2c(-c3ccncc3)cc(CC(C)(C)C)cc21 | 8.00 |
| COCC(=O)N[C@@H](Cc1cc(F)cc(F)c1)[C@H](O)CN[C@H]1CC2(CCC2)Oc2c1cc(CC(C)(C)C)nc2-c1nccn1C | 7.39 |
| COCC(=O)N[C@@H](Cc1ccccc1)[C@H](O)CN[C@H]1CC2(CCC2)Oc2c(-c3ccncc3)cc(CC(C)C)cc21 | 8.00 |
| CO[C@H](C)C(=O)N[C@@H](Cc1ccc(F)cc1)[C@H](O)CN[C@H]1CC2(CCC2)Oc2c(-c3ccncc3)cc(CC(C)C)cc21 | 7.39 |

Now, please, on to the next molecule.
INPUT: GET /values?readout=pIC50&item= COCC(=O)N[C@@H](Cc1ccc2c(c1)OCO2)[C@H](O)CN[C@H]1CC2(CCC2)Oc2ncc([C@@H]3CC3(C)C)cc21
OUTPUT: 8.00

====

assay: Microsomal stability assay, rat liver microsomes; conditions: rat liver microsomal data;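 also: rat liver microsomes (0.25 mg/mL) with about 1 µM compound plus 1 mM NADPH, pH 7.4, 37 °C for 30 min, parent left measured by LC-MS/MS against 0 min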
parameter: RLM (µL/min/mg)
One number for each entry, in µL/min/mg.

| compound | measurement.unit | RLM |
| --- | --- | --- |
| CC(=O)N[C@@H](Cc1cccc(F)c1)[C@H](O)CN[C@H]1CC2(CCC2)Oc2c1cc(CC(C)(C)C)nc2-n1ccnc1 | µL/min/mg | 61 |
| CC(=O)C(C)(C)C(=O)N[C@@H](Cc1cccc(F)c1)[C@H](O)CN[C@H]1CC2(CCC2)Oc2ncc(CC(C)(C)C)cc21 | µL/min/mg | 292 |
| CC(=O)N[C@@H](Cc1cc(F)cc(F)c1)[C@H](O)CN[C@H]1CC2(CCC2)Oc2c1cc(CC(C)(C)C)nc2-c1cscn1 | µL/min/mg | 358 |
| COCC(=O)N[C@@H](Cc1ccc(F)cc1)[C@H](O)CN[C@H]1CC2(CCC2)Oc2c(-c3cnc[nH]3)cc(CC(C)C)cc21 | µL/min/mg | 82 |
| CCOCC(=O)N[C@@H](Cc1cccc(-c2ncco2)c1)[C@H](O)CN[C@H]1CC2(CCC2)Oc2ncc(CC(C)(C)C)cc21 | µL/min/mg | 62 |

Okay, here is my list. What is RLM for each of these?
1. C#Cc1cccc(C[C@H](NC(=O)[C@@H](C)OC)[C@H](O)CN[C@H]2CC3(CCC3)Oc3ncc(CC(C)(C)C)cc32)c1
2. CC(C)(C)Cc1cnc2c(c1)[C@@H](NC[C@@H](O)[C@H](Cc1cccc(C#N)c1)NC(=O)[C@H]1CCCO1)CC1(CC(F)(F)C1)O2

OUTPUT:
[43, 775]

Okay, here is my list. What is RLM for each of these?
1. C#Cc1cccc(C[C@H](NC(=O)COC)[C@H](O)CN[C@H]2C[C@@]3(CCOC3)Oc3ncc(CC(C)(C)C)cc32)c1 [compound 869]
2. CO[C@H](C)C(=O)N[C@@H](Cc1cccc(F)c1)[C@H](O)CN[C@H]1CC2(CCC2)Oc2c1cc(CC(C)C)cc2-n1ccnc1

OUTPUT:
[55, 142]

====

tested on: Aβ40 in conditioned medium of cells stably expressing Amyloid Precursor Protein (APP); test: In vitro BACE cell-based assay (Aβ40 in conditioned medium, sandwich ELISA); details: Homo sapiens, HEK293, HEK cell-based assay, IC50's in uM; read-out: HEK cell assay;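 also: compounds added as a dilution series, secreted peptide quantified by europium time-resolved fluorescence readout, potency fitted from percent of control versus compound concentration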
Assign IC50 to each entry below.
State the value with its unit after it.

Answered examples (3):
| smiles | IC50 |
| --- | --- |
| C#Cc1cccc(C[C@H](NC(=O)[C@@H](C)OC)[C@H](O)CN[C@H]2CC3(CCC3)Oc3ncc(CC(C)C)cc32)c1 | 0.013 µM |
| CO[C@H](C)C(=O)N[C@@H](Cc1cc(F)cc(Cl)c1)[C@H](O)CN[C@H]1CC2(CCC2)Oc2ccc(CC(C)C)cc21 | 0.07 µM |
| COC(OC)C(=O)N[C@@H](Cc1cccc(C#N)c1)[C@H](O)CN[C@H]1CC2(CCC2)Oc2ncc(CC(C)(C)C)cc21 | 0.005 µM |

Okay, here is my list. What is IC50 for each of these?
1. CC#Cc1cccc(C[C@H](NC(=O)[C@@H](C)OC)[C@H](O)CN[C@H]2CC3(CCC3)Oc3ncc(CC(C)C)cc32)c1
2. CC(C)(C)Cc1cnc2c(c1)[C@@H](NC[C@@H](O)[C@H](Cc1ccc(F)cc1)NC(=O)[C@@H]1CN(Cc3cscn3)CCO1)CC1(CCC1)O2
3. Cc1nc(CN2CCO[C@H](C(=O)N[C@@H](Cc3ccc(F)cc3)[C@H](O)CN[C@H]3CC4(CCC4)Oc4ncc(CC(C)(C)C)cc43)C2)cs1

OUTPUT:
0.132 µM
0.029 µM
0.037 µM

Okay, here is my list. What is IC50 for each of these?
1. CC(C)(C)Cc1cnc2c(c1)[C@@H](NC[C@@H](O)[C@H](Cc1ccc(F)cc1)NC(=O)[C@@H]1CN(Cc3cncs3)CCO1)CC1(CCC1)O2
2. COCC(=O)N[C@@H](Cc1cc(-c2nccs2)cc(-c2nccs2)c1)[C@H](O)CN[C@H]1CC2(CCC2)Oc2ncc(CC(C)(C)C)cc21
3. CO[C@H](C)C(=O)N[C@@H](Cc1cc(F)cc(-c2nccs2)c1)[C@H](O)CN[C@H]1CC2(CCC2)Oc2ncc(CC(C)C)cc21

OUTPUT:
0.013 µM
0.477 µM
0.375 µM

INPUT: GET /values?readout=IC50&item= CO[C@H](C)C(=O)N[C@@H](Cc1cccc(-c2nccs2)c1)[C@H](O)CN[C@H]1CC2(CCC2)Oc2ncc(CC(C)C)cc21
OUTPUT: 0.027 µM
